# reported GI50; entries follow
Tested on: SF-539 CNS
ASSAY_OVERVIEW: NCI tumour cell line growth inhibition, 48 h

O=C(CCN1CCOCC1)Nc1cccc(-n2cc(-c3ccncc3)c(-c3ccc(Cl)c(O)c3)n2)c1    1770 nM
O=C(N[C@@H](Cc1coc2ccccc12)B(O)O)[C@@H]1C[C@H]2CC[C@@H]1O2    1720 nM
O=C1c2ccccc2C(=O)c2c(NCCN=Cc3ccccc3O)cccc21    2960 nM
Oc1ccc(N=Nc2nccs2)c(O)c1    6660 nM

Please look at the following compound next.
For the compound shown here, COc1ccc(-c2nn(-c3cccc(Cl)c3)cc2-c2nc(N)[nH]c(=O)c2C#N)cc1 , give the reported GI50.
6590 nM

====

System: MCF7 breast
ASSAY_OVERVIEW: NCI tumour cell line growth inhibition, 48 h
RECORDED_METRIC: TGI

COCn1cnc2c(=O)nc(SC)n(-c3ccccc3)c21    > 100 µM
CN1CCc2c(sc3[nH]c(=S)[nH]c(=S)c23)C1    > 100 µM
c1ccc(NCCSc2nc3ccccc3s2)cc1    > 100 µM

Please look at the following compound next.
For the compound shown here, C=C1C(O)C2C(=C(C)C13CC3)C(=O)C(C)(C)C2OC (stereo not given) , give the reported TGI.
> 100 µM

====

# reported TGI; entries follow
System: SK-OV-3 ovarian
ASSAY_OVERVIEW: NCI tumour cell line growth inhibition, 48 h

CN1CC=C(c2c(N)nc(N)[nH]c2=O)CC1    > 100 µM
CCOC(=O)CCC(NC(=O)c1ccc(NCc2ccc3nc(-c4ccccc4)c(Cl)nc3c2)cc1)C(=O)OCC (stereo not drawn)    > 100 µM

Please look at the following compound next.
For the compound shown here, O=C1C=C(Nc2ccc(S(=O)(=O)Nc3nccs3)cc2)c2ccccc2C1=O , give the reported TGI.
> 100 µM

====

# reported TGI; entries follow
System: M14 melanoma
ASSAY_OVERVIEW: NCI tumour cell line growth inhibition, 48 h

Below, each entry is followed by its recorded TGI result.
CC1(C)N=C(N)N=C(N)N1c1cccc(OCCOc2cccc([N+](=O)[O-])c2)c1    > 100 µM
Cc1sc2c(c1C)C(c1ccc(Cl)cc1)=N[C@@H](CC(=O)Nc1ccc(OCCOCCOCCOCCNc3cccc4c3C(=O)N(C3CCC(=O)NC3=O)C4=O)cc1)c1nnc(C)n1-2 (stereo partly drawn)    > 100 µM

Please look at the following compound next.
For the compound shown here, CC(NC(=O)c1c(O)[nH]c(=S)[nH]c1=O)c1ccc([N+](=O)[O-])cc1 (stereo not drawn) , give the reported TGI.
> 100 µM

====

Tested on: TK-10 renal
ASSAY_OVERVIEW: NCI tumour cell line growth inhibition, 48 h
# reported TGI; entries follow

O=c1cc(CF)[nH]c(=S)[nH]1    > 100 µM
Oc1ccc(/C=C/c2cc(O)cc3c2C(c2cc(O)cc(O)c2)C(c2ccc(O)c(O)c2)O3)cc1 (stereo not drawn)    > 100 µM

Please look at the following molecule next.
Lab request: please report TGI under test system TK-10 renal for Cc1ccc2c(c1-c1ccccc1)C(=O)OC2
> 100 µM

====

System: A549 NSCLC
ASSAY_OVERVIEW: NCI tumour cell line growth inhibition, 48 h
RECORDED_METRIC: TGI

O=[N+]([O-])c1c(F)c(F)c2c(c1F)N(CCCCCl)c1ccccc1S2    31.8 µM
O=C1C=CC(=CC=C2C=CN(CCCCCCCCCCC(=O)NCCCCCCCCCCCC(=O)O)C=C2)C=C1    > 100 µM
C=C1C(O)C2C(=C(C)C13CC3)C(=O)C(C)(C)C2OC (centres undefined)    > 100 µM

For the compound shown here, Oc1ccc(/C=C/c2cc(O)cc3c2C(c2cc(O)cc(O)c2)C(c2ccc(O)c(O)c2)O3)cc1 (centres undefined) , give the reported TGI.
> 100 µM

For the compound shown here, COc1ccc(CNc2nc(NC3CCCCC3)nc(NC3CCCCC3)n2)cc1 , give the reported TGI.
> 100 µM

For the compound shown here, CC(NC(=O)Cc1ccccc1)NC(=O)C(C)C(=O)NCc1ccccc1 (centres undefined) , give the reported TGI.
> 100 µM

Values were extracted from PubChem BioAssay (NCI).
